System: c-Abl (mouse);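 note: 11-residue human phosphosite peptides and single-mutation variants displayed on the E. coli surface, counted by deep sequencing, each peptide's frequency after selection divided by its frequency in the unselected input library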;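 note: frequency after pTyr selection over input frequency; kinase dosed for 20-30% of maximal phosphorylation in three min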
experiment_summary: phosphorylation enrichment, bacterial display (enrichment ratio); higher = better substrate or ligand; peptides without Tyr show the background
Below, each of the sequences is paired with its reported phosphorylation enrichment value.
observation_type: phosphorylation enrichment

1) NFDRVYIYHLR [MYOF_Y1137]	0.718
2) CTAIHYNFMCN [TP53_Y234_T231A_YF]	0.735
3) DLAHKYHGGGG [HBB_Y146_A141D]	0.394
4) ADRNHYRRYRR [YBX1_Y145_P149R]	0.661
5) ELRGTYTSLQQ [KIF3C_Y574]	0.684
6) IGMFSYVMLAS [GGCX_Y301]	0.997
7) SISLKYEGRVF [ABL1_Y167_R166K_YF]	0.661
8) EEQKKYFNATK [SCN5A_Y1494_M1498T_YF]	0.459
9) EKKDVYKAGEQ [CFH_Y1008]	0.475
10) TENAGYFFRIS	0.925
11) SDYYAYSPVRE [H6PD_Y449]	12.9
12) KELANYYKLHH [AK7_Y390]	0.497
13) VYYYSYLLKNH [PTEN_Y180]	2.84
14) PDMHSYVVRYN [GRIN2D_Y732_M733V]	0.694
15) GCAGKYIAMVM [CYP19A1_Y441]	0.712
16) FVSSFYHAFSG [ACTN4_Y265_YF]	2.01
17) NIWDSYTTNKV [GNB1_Y85_I80N]	0.656
18) LFSINYLHFGE [KDM4C_Y201_YF]	0.953
19) AAVDNYCRHNY [HLA-DRB1_Y107_T106N]	0.502
20) PRPACYPSTVS [CACNA1C_Y1832_G1831C]	0.437
21) QHNPEYVQQAS [LRRC7_Y1058]	0.641
22) AIFWRYSKFFD [SH3PXD2B_Y45_R43W_YF]	0.959
23) RSSNTYTLMDV [ALCAM_Y298_T301M]	0.614
24) FADIAYNYRQG [PAH_Y166_H170Q]	0.594
25) SSDPDYRAAVD [GLB1_Y154_L155R]	0.669
26) MFRAGYDTKQE [F10_Y407_C404R]	0.497
27) SRNKPYISWPS [CDC42BPB_Y1638]	0.477
28) YSKDIYKRVTG [PANK2_Y405_N404I]	0.435
29) LHRAHYDLHHT [AHSG_Y314_R317H]	0.781
30) YQLENYCNGGG [INS_Y108]	0.473
31) YQNGMYGLHQD [SGSH_Y89_H84Y]	0.748
32) TVSRPYSFIEF [SEC22B_Y110]	0.639
33) NIQKKYFRAIL [CHD7_Y1217_YF]	0.43
34) VGTKRYMAPDV [ACVRL1_Y375_E379D]	0.494
35) HSGVSYYINLC [IGF2R_Y2024_N2020S]	1.21
36) KLIETYFSKNF [PLP1_Y50_YF]	0.668
37) FYRNVYHLASV [RBL1_Y796_K794N]	0.429
38) LSIWPYLQKID [MFSD8_Y63_M58L]	0.6
39) SSVKLYRVYCD [FGB_Y266_P265L]	0.718
40) FFVVEYRNQKP [MUC17_Y4332_D4334N_YF]	1.52
41) DRSSLYLVAGP [KIAA1614_Y1083_N1078D]	0.652
42) DKATEYIQYVR [MAX_Y70_M74V]	0.582
43) RQQEVYLLFKQ [RARRES1_Y159_D158V_YF]	1.64
44) YFVVEYRNQKP [MUC17_Y4332_D4334N]	0.722
45) EQKKFYNAMKN [SCN5A_Y1495_K1500N_YF]	0.446
46) MFCASYDTKQE [F10_Y407_G406S]	0.731
47) QKKPCYEIRWK [PDGFRB_Y562_R561C]	0.652
48) TFLRTYTDAMQ [TSPAN7_Y124]	0.552
49) ESMLRYDVYGG [STOX1_Y607_E608D]	0.529
50) MNPPPYSQFLS [FGF23_Y154]	0.536
51) QRRNVYYYSYL [PTEN_Y176_Y174N]	1.15
52) ASRKYYAMKIL [AKT3_Y174_G171R]	0.379
53) GYRVCYTPDSR [PTPRF_Y451_Y450C]	0.794
54) ITNHIYTWVDP [DFNB31_Y234_V229I]	0.832
55) GIVEDYRPPFC [ACVRL1_Y421_Y426C]	0.782
56) NTYENYWPFYQ [GATM_Y103_K102N]	2.79
57) KIDAKYKKKIE [WDR19_Y1230]	0.631
